TGI listing for selected molecules.
Tested on: RPMI-8226 leukemia
Assay: NCI tumour cell line growth inhibition, 48 h

{"columns": ["Molecule", "TGI"],
 "data": [
  ["Cc1ccc(-c2nc(C#N)c(S(=O)(=O)n3nc(C)cc3N)o2)cc1", "10.1 µM"],
  ["N#Cc1c(-c2ccc([N+](=O)[O-])cc2)c(C#N)c(=O)n(NS(=O)(=O)c2ccccc2)c1-c1ccccc1", "> 100 µM"],
  ["C=CC1CN2CCC1CC2C(O)c1ccnc2ccc(OC)cc12 (stereo unspecified)", "> 100 µM"],
  ["Nc1nc(N)c2nc(CNc3ccc(C(=O)NC(CC(=O)O)C(=O)O)cc3)cnc2n1 (stereo unspecified)", "> 100 µM"],
  ["O=C(O)c1cc2ccc3ccccc3c2oc1=O", "> 100 µM"],
  ["O=C(NCCNCCCNC(=O)c1cc(-c2ccccc2)nc2ccccc12)c1cccc(O)c1O", "15.3 µM"],
  ["COc1ccc(-c2nc(-c3ccccc3)c(-c3ccccc3)[nH]2)cc1OC1CCCC1", "> 100 µM"],
  ["COCC(O)Cn1ccnc1[N+](=O)[O-] (stereo unspecified)", "> 100 µM"],
  ["CCOC(=O)c1cc2c(n1Cc1cccc(OC)c1)-c1oncc1CCC2", "> 43 µM"],
  ["O=c1[nH]nc2ccccc2c1Cc1ccccc1", "> 100 µM"],
  ["Cc1oc2c(C)c3oc(=O)cc(C)c3cc2c1CN1C(=O)C2OCCOCCOCCOCCOCCO[C@H]2C1=O (stereo partly specified)", "> 100 µM"]
]}
